Tested on: P. aeruginosa TL-2667
Assay: Sensitivity test (agar dilution)
Assay type: cell-based, Pseudomonas aeruginosa
Settings: Pseudomonas aeruginosa, TL2667, drug alone; P. aeruginosa TL-2667; read-out: MIC alone
Procedure: […] FIC index based on MIC value was calculated. […] Namely, when FIC index calculated by the following formula is equal or less than 1, the enhanced effect of the combination drug in said ratio is considered as positive. […] Formula of FIC index: FIC index=(MIC of Drug A in combination/MIC of Drug A alone)+(MIC of Drug B in combination/MIC of Drug B alone) N.C. in tables means being not calculated.
What MIC was measured for each of the following?
One number for each entry, in µg/mL.

compound	MIC [µg/mL]
CC(C)(O/N=C(\C(=O)N[C@@H]1C(=O)N2C(C(=O)[O-])=C(C[n+]3ccccc3)CS[C@H]12)c1csc(N)n1)C(=O)O [CAZ, ceftazidime]	1
C[C@@H](O)[C@H]1C(=O)N2C(C(=O)[O-])=C(SC3Cn4cnc[n+]4C3)[C@H](C)[C@H]12 (stereo partly drawn) [BIPM, biapenem]	8

Let's switch to this compound now.
Per the records, this compound ( C[C@@H](O)[C@H]1C(=O)N2C(C(=O)O)=C(S[C@@H]3CN[C@H](CNS(N)(=O)=O)C3)[C@H](C)[C@H]12 [DRPM, doripenem] ) has MIC equal to 2

----------
tested on: P. aeruginosa IFO3451; assay: Sensitivity test (agar dilution); type: cell-based, Pseudomonas aeruginosa; conditions: Pseudomonas aeruginosa, IFO3451, drug alone; P. aeruginosa IFO3451; read-out: MIC alone
measurement_name: MIC

Answered examples (3):
C[C@H]1C=C(c2csc(SC3=C(C(=O)O)N4C(=O)[C@H]([C@@H](C)O)[C@H]4[C@H]3C)n2)CN1 8 µg/mL
CC(=N)N1CC[C@H](SC2=C(C(=O)O)N3C(=O)[C@H]([C@@H](C)O)[C@H]3C2)C1 4 µg/mL
C[C@@H](O)[C@H]1C(=O)N2C(C(=O)O)=C(S[C@@H]3CN[C@H](CNS(N)(=O)=O)C3)[C@H](C)[C@H]12 0.5 µg/mL

Let's switch to this compound now.
Record `C[C@H]1[C@H](NC(=O)/C(=N\OC(C)(C)C(=O)O)c2csc(N)n2)C(=O)N1S(=O)(=O)O` . Reported MIC: 2 µg/mL

----------
System: P. aeruginosa IFO3451
Test: Sensitivity test (agar dilution)
Assay type: cell-based, Pseudomonas aeruginosa
Conditions: Pseudomonas aeruginosa, IFO3451, drug alone; P. aeruginosa IFO3451; read-out: MIC alone
Method: […] FIC index based on MIC value was calculated. […] Namely, when FIC index calculated by the following formula is equal or less than 1, the enhanced effect of the combination drug in said ratio is considered as positive. […] Formula of FIC index: FIC index=(MIC of Drug A in combination/MIC of Drug A alone)+(MIC of Drug B in combination/MIC of Drug B alone) N.C. in tables means being not calculated.
Exercise: for every item that follows, state its recorded MIC.

These recorded examples may help you get a feel for the data.
compound	MIC
CCN1CCN(C(=O)N[C@@H](C(=O)N[C@@H]2C(=O)N3[C@@H]2SC(C)(C)[C@@H]3C(=O)O)c2ccccc2)C(=O)C1=O	4 µg/mL
C[C@@H](O)[C@H]1C(=O)N2C(C(=O)[O-])=C(SC3Cn4cnc[n+]4C3)[C@H](C)[C@H]12 (stereo partly drawn)	0.25 µg/mL

Continue with the next compound.
For reference, reported MIC for `CC(C)(O/N=C(\C(=O)N[C@@H]1C(=O)N2C(C(=O)[O-])=C(C[n+]3ccccc3)CS[C@H]12)c1csc(N)n1)C(=O)O` stands at 1 µg/mL

----------
test system: E. coli ML1410; assay: Sensitivity test (agar dilution); assay type: cell-based, Escherichia coli; settings: Escherichia coli, ML1410, drug alone; E. coli ML1410; read-out: MIC alone
measurement_name: MIC (µg/mL)
Give bare numbers, in µg/mL.

Example molecules with recorded MIC:
C[C@@H](O)[C@H]1C(=O)N2C(C(=O)O)=C(S[C@@H]3CN[C@H](CNS(N)(=O)=O)C3)[C@H](C)[C@H]12 0.031
C[C@H]1C=C(c2csc(SC3=C(C(=O)O)N4C(=O)[C@H]([C@@H](C)O)[C@H]4[C@H]3C)n2)CN1 0.25

Parameter requested: MIC. Apply to each item below.
1. CCN1CCN(C(=O)N[C@@H](C(=O)N[C@@H]2C(=O)N3[C@@H]2SC(C)(C)[C@@H]3C(=O)O)c2ccccc2)C(=O)C1=O
2. CC(=N)N1CC[C@H](SC2=C(C(=O)O)N3C(=O)[C@H]([C@@H](C)O)[C@H]3C2)C1

1: 2; 2: 0.5

----------
test system: B. subtilis ATCC6633; assay: Sensitivity test (agar dilution); format: cell-based, Bacillus subtilis; conditions: Bacillus subtilis, ATCC6633, drug alone; B. subtilis ATCC6633; read-out: MIC alone
measurement_name: MIC (µg/mL)
Numbers only, in µg/mL.

Examples with answers:
molecule	measurement_name	readout_number
C[C@@H](O)[C@H]1C(=O)N2C(C(=O)[O-])=C(SC3Cn4cnc[n+]4C3)[C@H](C)[C@H]12 (some centres unmarked)	MIC	0.031
C[C@H]1C=C(c2csc(SC3=C(C(=O)O)N4C(=O)[C@H]([C@@H](C)O)[C@H]4[C@H]3C)n2)CN1	MIC	0.004

Items follow; give MIC for each.
1. CCN1CCN(C(=O)N[C@@H](C(=O)N[C@@H]2C(=O)N3[C@@H]2SC(C)(C)[C@@H]3C(=O)O)c2ccccc2)C(=O)C1=O
2. CC(C)(O/N=C(\C(=O)N[C@@H]1C(=O)N2C(C(=O)[O-])=C(C[n+]3ccccc3)CS[C@H]12)c1csc(N)n1)C(=O)O

1: 0.125; 2: 2
